Tested on: Hepatitis B virus
TEST NAME: Antiviral activity against Hepatitis B virus infected in human HepG2.2.15 cells assessed as inhibition of HBeAg secretion at 37.5 uM after 6 days by ELISA
Assay type: functional
TEST PARAMETERS: HepG2 2.2.15, 144 h
PROPERTY LABEL: inhibition at 37.5 µM (%)
Numbers only, in %.

Answered cases to consult:
COMPOUND STRUCTURE: O=C(/C=C/c1ccc2c(c1)OCO2)O/N=C/c1ccco1
UNIT SYMBOL: %
VALUE: 26
--
COMPOUND STRUCTURE: COc1cc(/C=C/C(=O)O/N=C/c2cccs2)cc2c1OCO2
UNIT SYMBOL: %
VALUE: 16.1
--
COMPOUND STRUCTURE: O=C(/C=C/c1ccc2c(c1)OCO2)O/N=C/c1ccccn1
UNIT SYMBOL: %
VALUE: 66.5
--
COMPOUND STRUCTURE: COc1ccc(/C=C/C(=O)O/N=C/c2cccs2)cc1OC
UNIT SYMBOL: %
VALUE: 8.58
--
COMPOUND STRUCTURE: COc1ccc(/C=C/C(=O)O/N=C/c2ccccn2)cc1OC
UNIT SYMBOL: %
VALUE: 24.7
--
COMPOUND STRUCTURE: COc1cc(/C=C/C(=O)O/N=C/c2ccccn2)cc(OC)c1OC
UNIT SYMBOL: %
VALUE: 21.4
--
COMPOUND STRUCTURE: COc1cc(/C=C/C(=O)O/N=C/c2ccccn2)cc2c1OCO2
UNIT SYMBOL: %
VALUE: 22.7
--
COMPOUND STRUCTURE: COc1cc(/C=C/C(=O)O/N=C/c2ccco2)cc2c1OCO2
UNIT SYMBOL: %
VALUE: 30.7

// for each compound below, give its inhibition at 37.5 µM
1. COc1ccc(/C=C/C(=O)O/N=C/c2ccco2)cc1OC
2. COc1cc(/C=C/C(=O)O/N=C/c2ccco2)cc(OC)c1OC

1: 20; 2: 17.9

Each compound below has a recorded value; state its inhibition at 37.5 µM.
1. O=C(/C=C/c1ccc2c(c1)OCO2)O/N=C/c1cccs1
2. COc1cc(/C=C/C(=O)O/N=C/c2cccs2)cc(OC)c1OC
3. Nc1ccn([C@@H]2CS[C@H](CO)O2)c(=O)n1

1: 20.6; 2: 17.1; 3: 12.8

====

System: Hepatitis B virus
TEST NAME: Antiviral activity against Hepatitis B virus infected in human HepG2.2.15 cells assessed as inhibition of HBV DNA copies per uL at 300 uM after 3 days by real-time fluorescence quantitative PCR analysis
Type: functional
TEST PARAMETERS: HepG2 2.2.15, 72 h
PROPERTY LABEL: inhibition at 300 µM (%)
Numbers only, in %.

COMPOUND STRUCTURE: Nc1ccn([C@@H]2CS[C@H](CO)O2)c(=O)n1
inhibition at 300 µM [%]: 59.5
--
COMPOUND STRUCTURE: COc1cc(/C=C/C(=O)O/N=C/c2ccco2)cc2c1OCO2
inhibition at 300 µM [%]: 46.5
--
COMPOUND STRUCTURE: O=C(/C=C/c1ccc2c(c1)OCO2)O/N=C/c1ccccn1
inhibition at 300 µM [%]: 62.8

Continue with the molecule presented below.
For reference, reported inhibition at 300 µM for "COc1cc(/C=C/C(=O)O/N=C/c2ccccn2)cc2c1OCO2" stands at 41.1

====

TEST NAME: Selectivity index, ratio of CC50 for human HepG2.2.15 cells to IC50 for Hepatitis B virus infected in human HepG2.2.15 cells assessed as inhibition of HBsAg secretion
Format: functional
I'd be grateful if you could share measured Ratio CC50/IC50 for these entries.
One number for each entry.

Examples with their reported Ratio CC50/IC50 follow.
COMPOUND STRUCTURE: COc1cc(/C=C/C(=O)O/N=C/c2ccco2)cc2c1OCO2
Ratio CC50/IC50: 12.9
--
COMPOUND STRUCTURE: COc1cc(/C=C/C(=O)O/N=C/c2cccs2)cc2c1OCO2
Ratio CC50/IC50: 9.1
--
COMPOUND STRUCTURE: COc1ccc(/C=C/C(=O)O/N=C/c2ccccn2)cc1OC
Ratio CC50/IC50: 3.59
--
COMPOUND STRUCTURE: O/N=C/c1ccco1
Ratio CC50/IC50: 1.01
--
COMPOUND STRUCTURE: O=C(/C=C/c1ccc2c(c1)OCO2)O/N=C/c1ccccn1
Ratio CC50/IC50: 17.85
--
COMPOUND STRUCTURE: O=C(/C=C/c1ccc2c(c1)OCO2)O/N=C/c1ccco1
Ratio CC50/IC50: 7.42
--
COMPOUND STRUCTURE: O/N=C/c1ccccn1
Ratio CC50/IC50: 1.04
--
COMPOUND STRUCTURE: COc1cc(/C=C/C(=O)O/N=C/c2ccco2)cc(OC)c1OC
Ratio CC50/IC50: 6.06

Fill in Ratio CC50/IC50 for each of the 3 compounds listed.
1. Nc1ccn([C@@H]2CS[C@H](CO)O2)c(=O)n1
2. O=C(O)/C=C/c1ccc2c(c1)OCO2
3. O/N=C/c1cccs1

1. 2.42
2. 1.16
3. 1.59

====

Assignment: determine reported inhibition at 300 µM for the given compounds.
Test system: Hepatitis B virus
TEST NAME: Antiviral activity against Hepatitis B virus infected in human HepG2.2.15 cells assessed as inhibition of HBsAg secretion at 300 uM after 6 days by ELISA
Assay type: functional
TEST PARAMETERS: HepG2 2.2.15, 144 h
Give bare numbers, in %.

COMPOUND STRUCTURE: COc1cc(/C=C/C(=O)O/N=C/c2ccccn2)cc2c1OCO2
TARGET ENTITY: Hepatitis B virus
inhibition at 300 µM (%): 76.6
--
COMPOUND STRUCTURE: COc1cc(/C=C/C(=O)O/N=C/c2cccs2)cc2c1OCO2
TARGET ENTITY: Hepatitis B virus
inhibition at 300 µM (%): 67.3
--
COMPOUND STRUCTURE: COc1ccc(/C=C/C(=O)O/N=C/c2ccccn2)cc1OC
TARGET ENTITY: Hepatitis B virus
inhibition at 300 µM (%): 32.8
--
COMPOUND STRUCTURE: O=C(/C=C/c1ccc2c(c1)OCO2)O/N=C/c1ccco1
TARGET ENTITY: Hepatitis B virus
inhibition at 300 µM (%): 79.5
--
COMPOUND STRUCTURE: COc1cc(/C=C/C(=O)O/N=C/c2ccco2)cc2c1OCO2
TARGET ENTITY: Hepatitis B virus
inhibition at 300 µM (%): 70.7

Go through the items and report each one's inhibition at 300 µM.
1. COc1cc(/C=C/C(=O)O/N=C/c2cccs2)cc(OC)c1OC
2. O=C(/C=C/c1ccc2c(c1)OCO2)O/N=C/c1ccccn1

1: 56; 2: 88.7

====

Test system: Hepatitis B virus
TEST NAME: Antiviral activity against Hepatitis B virus infected in human HepG2.2.15 cells assessed as inhibition of HBeAg secretion at 75 uM after 9 days by ELISA
Assay type: functional
TEST PARAMETERS: HepG2 2.2.15, 216 h
PROPERTY LABEL: inhibition at 75 µM (%)
Give bare numbers, in %.

Below are worked cases with known answers.
COMPOUND STRUCTURE: O=C(/C=C/c1ccc2c(c1)OCO2)O/N=C/c1cccs1
PROPERTY LABEL: inhibition at 75 µM
VALUE: 42.9
//
COMPOUND STRUCTURE: COc1cc(/C=C/C(=O)O/N=C/c2ccco2)cc(OC)c1OC
PROPERTY LABEL: inhibition at 75 µM
VALUE: 35.6
//
COMPOUND STRUCTURE: COc1cc(/C=C/C(=O)O/N=C/c2ccccn2)cc2c1OCO2
PROPERTY LABEL: inhibition at 75 µM
VALUE: 57.3

Consider now this further molecule.
Recorded inhibition at 75 µM (molecule "COc1cc(/C=C/C(=O)O/N=C/c2ccco2)cc2c1OCO2" ): 56.9

====

Test system: Hepatitis B virus
TEST NAME: Antiviral activity against Hepatitis B virus infected in human HepG2.2.15 cells assessed as inhibition of HBeAg secretion at 75 uM after 6 days by ELISA
Type: functional
TEST PARAMETERS: HepG2 2.2.15, 144 h
So I've got a bunch of compounds here, and I need their inhibition at 75 µM values.
Answers are plain numbers, in %.

Guide cases for inhibition at 75 µM, answers given:
COMPOUND STRUCTURE: COc1cc(/C=C/C(=O)O/N=C/c2cccs2)cc(OC)c1OC
TARGET ENTITY: Hepatitis B virus
PROPERTY LABEL: inhibition at 75 µM
VALUE: 20.9
//
COMPOUND STRUCTURE: COc1cc(/C=C/C(=O)O/N=C/c2ccccn2)cc2c1OCO2
TARGET ENTITY: Hepatitis B virus
PROPERTY LABEL: inhibition at 75 µM
VALUE: 42.3
//
COMPOUND STRUCTURE: COc1ccc(/C=C/C(=O)O/N=C/c2cccs2)cc1OC
TARGET ENTITY: Hepatitis B virus
PROPERTY LABEL: inhibition at 75 µM
VALUE: 15.3
//
COMPOUND STRUCTURE: COc1cc(/C=C/C(=O)O/N=C/c2ccco2)cc2c1OCO2
TARGET ENTITY: Hepatitis B virus
PROPERTY LABEL: inhibition at 75 µM
VALUE: 37.8
//
COMPOUND STRUCTURE: COc1ccc(/C=C/C(=O)O/N=C/c2ccccn2)cc1OC
TARGET ENTITY: Hepatitis B virus
PROPERTY LABEL: inhibition at 75 µM
VALUE: 32.9
//
COMPOUND STRUCTURE: O=C(/C=C/c1ccc2c(c1)OCO2)O/N=C/c1ccccn1
TARGET ENTITY: Hepatitis B virus
PROPERTY LABEL: inhibition at 75 µM
VALUE: 74.8
//
COMPOUND STRUCTURE: COc1ccc(/C=C/C(=O)O/N=C/c2ccco2)cc1OC
TARGET ENTITY: Hepatitis B virus
PROPERTY LABEL: inhibition at 75 µM
VALUE: 27.9

Reported inhibition at 75 µM ( "O=C(/C=C/c1ccc2c(c1)OCO2)O/N=C/c1cccs1" ) = 32
